B1: CPEB3 Ribozyme (parent)
chain: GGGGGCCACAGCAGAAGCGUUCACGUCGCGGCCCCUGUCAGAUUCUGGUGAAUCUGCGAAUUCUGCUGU

Variants of: B1
MEASUREMENT_NOTES: self-cleavage, relative activity (ratio to wild type); higher = more cleavage; co-transcriptional
Entry flag: satisfied if self-cleavage reaches 0.3; not satisfied if it does not.

Here's what some known entries look like.
[[record]]
sequence_record = "GGGGGCCACAGCAGAAGCGUUAACGUCGCGGCCCCUGUUAGAUUCUGGUGAAUCUGCGAAUUCUGCUGU [C22A C39U]"
category = "not satisfied"

[[record]]
sequence_record = "GGAGGCCACAGCAGAAGCGUUCAGGUCGCGGCCCCUGUCAGAUUCUGGUGAAUCUGCGAAUUCUGCUGU [G3A C24G]"
category = "not satisfied"

[[record]]
sequence_record = "GGGGUCCACAGCAGAAGCGUUCACUUCGCGGCCCCUGUCAGAUUCUGGUGAAUCUGCGAAUUCUGCUGU [G5U G25U]"
category = "not satisfied"

[[record]]
sequence_record = "GGGGGCCACAGCAGCGGCGUUCACGUCGCGGCCCCUGUCAGAUUCUGGUGAAUCUGCGAAUUCUGCUGU [A15C A16G]"
category = "not satisfied"

[[record]]
sequence_record = "GGGGGCCACAGCAGAAGCGUUCUCGUCGCGGCCCCUGUCAGAUUCUGGUGAAUUUGCGAAUUCUGCUGU [A23U C54U]"
category = "satisfied"

[[record]]
sequence_record = "GGGGGCCACAGCAGAAGCGUUCACGACGCGGCCUCUGUCAGAUUCUGGUGAAUCUGCGAAUUCUGCUGU [U26A C34U]"
category = "satisfied"

[[record]]
sequence_record = "GGGCGCCACAGCAGAAGCGUUCACGUCACGGCCCCUGUCAGAUUCUGGUGAAUCUGCGAAUUCUGCUGU [G4C G28A]"
category = "not satisfied"

[[record]]
sequence_record = "GGGGGCCACAGCAGAAGCGUUCACUUCGCGGCCCCUGUCAGAUUAUGGUGAAUCUGCGAAUUCUGCUGU [G25U C45A]"
category = "not satisfied"

[[record]]
sequence_record = "GGGGGCCACAGCAGAAGCGUUCACGUCGCGGCCCCUGUCAUAUUCUGGUGAAUCUGCGAAUUCUUCUGU [G41U G65U]"
category = "satisfied"

[[record]]
sequence_record = "GGGGGCCACAGCAGAAGCGUGUACGUCGCGGCCCCUGUCAGAUUCUGGUGAAUCUGCGAAUUCUGCUGU [U21G C22U]"
category = "not satisfied"


// query Confirm if self-cleavage reported for the variant GGGGGCCACAGCAGAAGCGUUCACGUCGCGGCCCCUGUCAGAUUUUGGAGAAUCUGCGAAUUCUGCUGU [C45U U49A] is 0.3 or above.
// result satisfied

// query Confirm if self-cleavage reported for the variant GGGGGCCGCAGCAGAAGCGUUCACGUCUCGGCCCCUGUCAGAUUCUGGUGAAUCUGCGAAUUCUGCUGU [A8G G28U] is 0.3 or above.
// result not satisfied

// query Confirm if self-cleavage reported for the variant GGGGGCCACAGCAGAAGCGUUCACGUCGCGGCCCCUGUCAUAUUCUGGUGAAUCUGCGAAUUCUGCUCU [G41U G68C] is 0.3 or above.
// result satisfied

// query Confirm if self-cleavage reported for the variant GGGGGCCACAGCUGAAGCGCUCACGUCGCGGCCCCUGUCAGAUUCUGGUGAAUCUGCGAAUUCUGCUGU [A13U U20C] is 0.3 or above.
// result not satisfied

// query Confirm if self-cleavage reported for the variant GGCGGCCACAGCAGAAGCGUUCACAUCGCGGCCCCUGUCAGAUUCUGGUGAAUCUGCGAAUUCUGCUGU [G3C G25A] is 0.3 or above.
// result not satisfied

// query Confirm if self-cleavage reported for the variant GGGGGCCACAGCAGAAGAGUUCACGUCGCGGCCCCUGUCAGUUUCUGGUGAAUCUGCGAAUUCUGCUGU [C18A A42U] is 0.3 or above.
// result not satisfied

// query Confirm if self-cleavage reported for the variant GGGGGCCACAGCAGAAGUGUUCUCGUCGCGGCCCCUGUCAGAUUCUGGUGAAUCUGCGAAUUCUGCUGU [C18U A23U] is 0.3 or above.
// result satisfied

// query Confirm if self-cleavage reported for the variant GGGGGCCACAGCAGAAGCGUUCAUGUCGCGGCCCCUGUCAGAUCCUGGUGAAUCUGCGAAUUCUGCUGU [C24U U44C] is 0.3 or above.
// result satisfied

// query Confirm if self-cleavage reported for the variant GGGUGCCACAGCAGAAGUGUUCACGUCGCGGCCCCUGUCAGAUUCUGGUGAAUCUGCGAAUUCUGCUGU [G4U C18U] is 0.3 or above.
// result not satisfied

// query Confirm if self-cleavage reported for the variant GGGGGCCACAGCAGAAGCGUUCACGUCGCGGCCCCUGACAGAUUCUGCUGAAUCUGCGAAUUCUGCUGU [U38A G48C] is 0.3 or above.
// result satisfied

// query Confirm if self-cleavage reported for the variant GGGGGCCACAGCAGAAGCGUUCACGUCGCGGCCCCUGACAGAUUCUGGCGAAUCUGCGAAUUCUGCUGU [U38A U49C] is 0.3 or above.
// result satisfied

// query Confirm if self-cleavage reported for the variant GGGGGCCACAGAAGAAGCGUUCACGUCGCGGCCCCUGUCAGAUACUGGUGAAUCUGCGAAUUCUGCUGU [C12A U44A] is 0.3 or above.
// result satisfied

// query Confirm if self-cleavage reported for the variant GGGGGCCACAGCAGAAGCGUUCAUGUCGCGGCCCCUGUCAGAUUCUGCUGAAUCUGCGAAUUCUGCUGU [C24U G48C] is 0.3 or above.
// result satisfied

// query Confirm if self-cleavage reported for the variant GGGGGCCACAGCAGAAGCGUUCACGUCGCGGCCCCUCUCAGUUUCUGGUGAAUCUGCGAAUUCUGCUGU [G37C A42U] is 0.3 or above.
// result not satisfied

// query Confirm if self-cleavage reported for the variant GGGGGCCACAGCAGAAGCGUUCACGUCGCGGCCCUUGUCAGAUUCUGGUGAAUCUGCGAAUUAUGCUGU [C35U C63A] is 0.3 or above.
// result satisfied

// query Confirm if self-cleavage reported for the variant GGGGGCCACAGCAGAAGCGUUCACGUCGCGGCCCCUGUCAUAUUCUGGUGAAUCUGCGAAUUCGGCUGU [G41U U64G] is 0.3 or above.
// result satisfied

// query Confirm if self-cleavage reported for the variant GGGGGCCACAGCAGAAUCGUUCACGUCGCGGCACCUGUCAGAUUCUGGUGAAUCUGCGAAUUCUGCUGU [G17U C33A] is 0.3 or above.
// result not satisfied

// query Confirm if self-cleavage reported for the variant GGGGGCCACAGCGGAAGCGUACACGUCGCGGCCCCUGUCAGAUUCUGGUGAAUCUGCGAAUUCUGCUGU [A13G U21A] is 0.3 or above.
// result satisfied

// query Confirm if self-cleavage reported for the variant GGGGGCCACAGCAGAAGCGUUCACGUCGCGGCCCCUGUCAGAUUCUGGUGAAUCUGCGGAUUCUGCUAU [A59G G68A] is 0.3 or above.
// result satisfied

Reference source for all entries: the RNAGym collection of RNA variant scans (doi:10.7554/elife.80360)
